The measured values listed here are drawn from the supplement of paper PMC11451515.

# Test system: SEM cells
# assay-method-text: cell viability relative to DMSO control; higher = less cytotoxic
# measurement-conditions: RPMI 5 mM glucose + 10% FBS; 48 h; 0.0211 µM
quantity-name: cell viability
Kindly report the value followed by its unit.

compound	result
CC[C@@]1(O)C(=O)OC\C2=C1\C=C3/N(CC4=CC5=C(C=CC(=C5CN(C)C)O)N=C34)C2=O	107%
C[C@@]12C[C@@]3(O)O[C@@H](O1)[C@]1(COC(=O)c4ccccc4)[C@H]3C[C@@]12O[C@@H]1O[C@H](CO)[C@@H](O)[C@H](O)[C@H]1O	100%
Cn1c(CNc2ccc(C(=N)N)cc2)nc2cc(C(=O)N(CCC(=O)O)c3ccccn3)ccc21	97.6%

Qu. Report cell viability for `COc1cc2c(cc1OC)CC(=O)N(CCCN(C)C[C@H]1Cc3cc(OC)c(OC)cc31)CC2.Cl` please.
Ans. 114%

Qu. Report cell viability for `CC(C)C(=O)Oc1ccc(CO)cc1[C@H](CCN(C(C)C)C(C)C)c1ccccc1` please.
Ans. 99.3%

Qu. Report cell viability for `O=C(Nc1ccccc1-c1cn2c(CN3CCNCC3)csc2n1)c1cnc2ccccc2n1` please.
Ans. 103%

Qu. Report cell viability for C/C=C1\C2C=C(C)CC1(N)c1ccc(=O)[nH]c1C2 (centres undefined) please.
Ans. 99.6%

Qu. Report cell viability for `Cc1ccc([S+](=O)([O-])N[C@@H](Cc2ccccc2)C(=O)CCl)cc1` please.
Ans. 97%

Qu. Report cell viability for `CCOC(=O)C/1=C(O)/C(=O)N(CC2=CC=CC=C2)C1` please.
Ans. 90.1%

Qu. Report cell viability for `CC(C)(C)c1[nH]cnc1/C=c1\[nH]c(=O)/c(=C/c2ccccc2)[nH]c1=O` please.
Ans. 14%
